- targetDesc: full-length H5 A/Vietnam/1203/2004 HA expressed on 293T cells (influenza A virus A/Vietnam/1203/2004 (H5N1))
- assayName: flow cytometry, HA-expressing 293T
Reported values of max. MFI for individual entries
Respond numerically; units are MFI and should not be typed.

- S45 (antibody, V domains shown) VH: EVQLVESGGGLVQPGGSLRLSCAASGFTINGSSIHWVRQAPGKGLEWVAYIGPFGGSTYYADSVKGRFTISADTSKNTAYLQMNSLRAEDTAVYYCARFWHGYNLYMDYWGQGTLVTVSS VL: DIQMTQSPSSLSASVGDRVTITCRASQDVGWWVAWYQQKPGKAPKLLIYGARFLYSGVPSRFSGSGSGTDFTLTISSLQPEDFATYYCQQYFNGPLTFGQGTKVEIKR: 451
- P47 (antibody, V domains shown) VH: EVQLVESGGGLVQPGGSLRLSCAASGFTIGNSGIHWVRQAPGKGLEWVASIWPSGGSTYYADSVKGRFTISADTSKNTAYLQMNSLRAEDTAVYYCARFGHIDGDIMDYWGQGTLVTVSS VL: DIQMTQSPSSLSASVGDRVTITCRASQDVYYYVAWYQQKPGKAPKLLISGSSYLYSGVPSRFSGSGSGTDFTLTISSLQPEDFATYYCQQYYNWPLTFGQGTKVEIKR: 396

Next, consider the following binder.
Quick one: max. MFI of Do1 (antibody, V domains shown) VH: EVQLVESGGGLVQPGGSLRLSCAASGFTIDNGSIHWVRQAPGKGLEWVAWIGPYGGFTSYADSVKGRFTISADTSKNTAYLQMNSLRAEDTAVYYCARFYGSGSSSFMDYWGQGTLVTVSS VL: DIQMTQSPSSLSASVGDRVTITCRASQDVWGGVAWYQQKPGKAPKLLIFFSRYLYSGVPSRFSGSGSGTDFTLTISSLQPEDFATYYCQQYYNGPLTFGQGTKVEIKR ?
313
